protocol.text: Pharmacokinetics of dihydroartemisinin (DHA), active metabolite, in plasma after multiple intravenous AS doses, non-compartmental analysis
Format: in vivo, human
reported.conditions: human, plasma, iv, 8 mg/kg
property.label: Cmax
Form field: result (number plus unit)

Reported Cmax for C[C@H]1[C@@H](O)O[C@@H]2O[C@@]3(C)CC[C@H]4[C@H](C)CC[C@@H]1[C@@]24OO3 [DHA, dihydroartemisinin] : what is it?
6060 ng/mL

---

protocol.text: Pharmacokinetics of dihydroartemisinin (DHA), active metabolite, in plasma after multiple intravenous AS doses, non-compartmental analysis
Assay type: in vivo, human
reported.conditions: human, plasma, iv, 4 mg/kg, Day 3; DHA after AS 4 mg/kg iv daily for 3 days, 2 min infusion; mean (CV%), n = 6; NCA
property.label: MRT (h)
Kindly answer with a numeric value in h, unit omitted.

Reported MRT for C[C@H]1[C@@H](O)O[C@@H]2O[C@@]3(C)CC[C@H]4[C@H](C)CC[C@@H]1[C@@]24OO3 [DHA, dihydroartemisinin] : what is it?
1.57
